- system: KDR (Homo sapiens)
- Sequence (P35968 20-1356): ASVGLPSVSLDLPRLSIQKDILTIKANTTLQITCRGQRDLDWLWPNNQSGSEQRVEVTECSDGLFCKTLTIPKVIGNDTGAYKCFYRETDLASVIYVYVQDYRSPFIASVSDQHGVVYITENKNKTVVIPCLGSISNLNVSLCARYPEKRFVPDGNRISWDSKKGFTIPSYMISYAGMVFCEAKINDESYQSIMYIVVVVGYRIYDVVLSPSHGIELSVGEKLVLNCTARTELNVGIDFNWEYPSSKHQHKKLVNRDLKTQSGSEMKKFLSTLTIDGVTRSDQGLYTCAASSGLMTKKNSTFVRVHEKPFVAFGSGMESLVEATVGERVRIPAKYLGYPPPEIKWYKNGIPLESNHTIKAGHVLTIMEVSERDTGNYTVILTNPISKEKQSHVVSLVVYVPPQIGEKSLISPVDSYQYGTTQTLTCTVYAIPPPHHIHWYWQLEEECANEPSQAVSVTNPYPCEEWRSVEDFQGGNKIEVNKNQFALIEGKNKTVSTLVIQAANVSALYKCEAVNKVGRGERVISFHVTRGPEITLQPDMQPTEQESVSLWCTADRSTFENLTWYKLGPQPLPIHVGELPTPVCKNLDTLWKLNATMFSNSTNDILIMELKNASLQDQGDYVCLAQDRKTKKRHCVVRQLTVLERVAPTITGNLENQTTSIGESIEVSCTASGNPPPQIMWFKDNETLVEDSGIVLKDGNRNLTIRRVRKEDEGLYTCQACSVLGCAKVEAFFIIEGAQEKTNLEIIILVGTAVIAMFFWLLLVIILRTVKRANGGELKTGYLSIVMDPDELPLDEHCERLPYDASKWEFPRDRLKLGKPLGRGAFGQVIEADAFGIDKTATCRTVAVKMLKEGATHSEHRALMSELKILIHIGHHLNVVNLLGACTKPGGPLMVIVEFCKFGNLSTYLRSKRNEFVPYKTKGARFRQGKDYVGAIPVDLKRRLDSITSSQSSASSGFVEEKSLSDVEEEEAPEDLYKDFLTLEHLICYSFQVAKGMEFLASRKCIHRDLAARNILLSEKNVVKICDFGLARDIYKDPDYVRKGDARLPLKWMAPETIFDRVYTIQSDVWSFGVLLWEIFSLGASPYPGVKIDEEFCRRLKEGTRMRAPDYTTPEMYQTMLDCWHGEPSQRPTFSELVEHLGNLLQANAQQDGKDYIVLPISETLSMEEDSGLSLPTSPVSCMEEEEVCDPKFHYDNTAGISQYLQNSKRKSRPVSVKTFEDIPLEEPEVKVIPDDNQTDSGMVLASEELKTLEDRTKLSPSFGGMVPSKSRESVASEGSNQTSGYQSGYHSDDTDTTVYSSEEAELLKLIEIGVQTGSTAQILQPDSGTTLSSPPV
- protocol_description: cell-based
- measurement_parameters: IC50 (nM), inhibition of KDR kinase autophosphorylation in KDR15 cells, KDR15 cells, VEGF 50 ng/ml, phospho-KDR-Y996 immunoblot
endpoint_name: IC50

CCC1=CC(=O)C(Nc2ncnc3cc(OC)c(OC)cc23)=CC1=O [Example 8]: 172 nM
COc1cc2ncnc(NC3=CC(=O)C(C)=CC3=O)c2cc1OC [Example 4]: < 15.6 nM
COc1cc2ncnc(NC3=CC(=O)C(Oc4ccc(Cl)cc4)=CC3=O)c2cc1OC [Example 94]: 386 nM
COCCOc1cc2ncnc(NC3=CC(=O)C(N(C)c4ccc(OC)c(OC)c4)=CC3=O)c2cc1OC [Example 73]: < 15.6 nM

Bench note, KDR (Homo sapiens): entry COCCOc1cc2ncnc(NC3=CC(=O)C(OCC4CC4)=CC3=O)c2cc1OC [Example 213] , its IC50 = 236 to 400 nM

Given the compound COc1cc2ncnc(NC3=CC(=O)C=C(C)C3=O)c2cc1OC [Example 7] and test system KDR (Homo sapiens), the measured IC50 is 250 nM

Assay KDR (Homo sapiens), sample COCCOc1cc2ncnc(NC3=CC(=O)C(N(C)C4CCCCC4)=CC3=O)c2cc1OC [Example 80] , IC50 read: < 62.5 nM

Reported KDR (Homo sapiens) IC50 for item COCCOc1cc2ncnc(NC3=CC(=O)C(OCCN(C)c4ccccc4)=CC3=O)c2cc1OC [Example 222] was 175 to 210 nM

====

- system: human KDR (VEGF-receptor-2) (Homo sapiens)
- Construct: beginning at Met-806; (5′-ATG GAT CCA GAT GM CTC CCA TTG) and ending at Val-1356; made in house
- protocol_description: KDR kinase enzyme assay wash-out experiments (irreversible inhibition)
- Assay type: biochemical
- measurement_parameters: no wash
Please note: IC50 exactly at 20 nM is NO. Only values below 20 nM get YES.

Examples from the recorded data:
COCCOc1cc2ncnc(NC3=CC(=O)C(Sc4nccs4)=C(OC)C3=O)c2cc1OC [Example 20]: YES
COCCOc1cc2ncnc(NC3=CC(=O)C4(Cc5ccccc5)OC4C3=O)c2cc1OC (centres unmarked) [Example 108]: NO
COCCOc1cc2ncnc(NC3=CC(=O)C(Oc4ccccc4C)=CC3=O)c2cc1OC [Example 90]: YES
COc1cc2ncnc(NC3=CC(=O)C=C(C)C3=O)c2cc1OC [Example 7]: YES
COCCOc1cc2ncnc(NC3=CC(=O)C(OCCN(C)c4ccccc4)=CC3=O)c2cc1OC [Example 222]: NO

**Query** Confirm or reject: IC50 of COCCOc1cc2ncc(C#N)c(NC3=CC(=O)C(Oc4ccc(-n5ccnc5)cc4)=CC3=O)c2cc1OC [Example 72] lies strictly below 20 nM
**Result** NO

**Query** Identify whether the compound COCCOc1cc2ncnc(NC3=CC(=O)C(N(C)c4ccc(N(C)C)cc4)=CC3=O)c2cc1OC [Example 75] records IC50 below 20 nM.
**Result** NO

**Query** Decide: IC50 of COc1cc2ncnc(NC3=CC(=O)C(C)=CC3=O)c2cc1OC [Example 4] strictly below 20 nM?
**Result** NO

====

- system: human KDR (VEGF-receptor-2) (Homo sapiens, UniProt P35968)
- Construct: beginning at Met-806; (5′-ATG GAT CCA GAT GM CTC CCA TTG) and ending at Val-1356; made in house
- Sequence (P35968 806-1356): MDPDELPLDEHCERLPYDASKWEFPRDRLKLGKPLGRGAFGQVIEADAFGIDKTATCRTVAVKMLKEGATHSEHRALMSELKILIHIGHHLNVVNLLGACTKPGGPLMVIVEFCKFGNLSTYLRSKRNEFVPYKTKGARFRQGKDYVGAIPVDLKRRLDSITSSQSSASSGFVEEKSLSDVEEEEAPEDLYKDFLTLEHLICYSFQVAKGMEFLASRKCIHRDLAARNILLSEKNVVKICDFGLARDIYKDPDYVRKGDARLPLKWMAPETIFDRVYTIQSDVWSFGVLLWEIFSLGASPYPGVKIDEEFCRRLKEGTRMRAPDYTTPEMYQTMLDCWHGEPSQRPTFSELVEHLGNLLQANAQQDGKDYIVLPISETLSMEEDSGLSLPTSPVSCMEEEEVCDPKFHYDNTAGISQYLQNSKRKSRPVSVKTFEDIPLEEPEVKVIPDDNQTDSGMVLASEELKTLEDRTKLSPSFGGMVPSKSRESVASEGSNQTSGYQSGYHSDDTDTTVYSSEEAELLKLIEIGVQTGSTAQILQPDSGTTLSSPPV
- protocol_description: KDR kinase enzyme assay (DELFIA, KDR-IC-Flag, poly(Glu4-Tyr) peptide)
- Format: biochemical
- measurement_parameters: Concentration 100 nM; ATP conc. 10 μM
endpoint_name: inhibition at 0.1 µM (%)
Report the figure in % without appending any unit label.

Solved entries (count: 5):
COCCOc1cc2ncnc(NC3=CC(=O)C(Oc4ccc(Oc5ccccc5)cc4)=CC3=O)c2cc1OC [Example 29]: 62
COCCOc1cc2ncnc(NC3=CC(=O)C(Oc4ccc(C#N)cc4)=CC3=O)c2cc1OC [Example 31]: 82
COCCOc1cc2ncnc(NC3=CC(=O)C(Oc4cccc(OC)c4)=CC3=O)c2cc1OC [Example 28]: 83
COCCOc1cc2ncnc(NC3=CC(=O)C(Oc4ccc(F)cc4)=CC3=O)c2cc1OC [Example 30]: 83
COCCOc1cc2ncnc(NC3=CC(=O)C(Oc4ccc(OC)cc4)=CC3=O)c2cc1OC [Example 32]: 88

Please fill in: inhibition at 0.1 µM reported for COCCOc1cc2ncnc(NC3=CC(=O)C(Oc4ccc(SC)cc4)=CC3=O)c2cc1OC [Example 35] = 87

The compound COCCOc1cc2ncnc(NC3=CC(=O)C(Oc4cccc(Cl)c4)=CC3=O)c2cc1OC [Example 33] showed inhibition at 0.1 µM equal to 84

====

- system: human KDR (VEGF-receptor-2) (Homo sapiens, UniProt P35968)
- Construct: beginning at Met-806; (5′-ATG GAT CCA GAT GM CTC CCA TTG) and ending at Val-1356; made in house
- protocol_description: KDR kinase enzyme assay (DELFIA, KDR-IC-Flag, poly(Glu4-Tyr) peptide)
- Assay type: biochemical
- measurement_parameters: Concentration 100 nM; ATP conc. 10 μM; read-out: % Inhibition
# inhibition at 0.1 µM per record follows
Give your result in % as a bare value.

CCOC(=O)c1c(C)[nH]c2ccc(OC3=CC(=O)C(Nc4ncnc5cc(OCCOC)c(OC)cc45)=CC3=O)cc12: 92

"COCCOc1cc2ncnc(NC3=CC(=O)C(Oc4ccc(C(=O)OC)cc4)=CC3=O)c2cc1OC" yielded inhibition at 0.1 µM of 92

Value of inhibition at 0.1 µM reported for the molecule "COCCOc1cc2ncnc(NC3=CC(=O)C(N(C)c4ccc(N(C)C)cc4)=CC3=O)c2cc1OC" is 47

// field: inhibition at 0.1 µM; key: "COCCOc1cc2ncnc(NC3=CC(=O)C(Oc4ccc(C)cc4)=CC3=O)c2cc1OC" ; value = 92

Record "COc1cc2ncnc(NC3=CC(=O)C(c4ccccc4)=CC3=O)c2cc1OC" , field inhibition at 0.1 µM: 93

====

- system: KDR (Homo sapiens)
- measurement_parameters: compound conc. 1000 nM
Reported values of % Inhibition of KDR kinase autophosphorylation in KDR15 cells for individual entries
Dear colleague, please return just the value in %, with no unit written.

COCCOc1cc2ncnc(NC3=CC(=O)C(N(C)c4ccc(OC)cc4)=CC3=O)c2cc1OC: 61

Looking up "COc1cc2ncnc(NC3=CC(=O)C(c4ccccc4)=CC3=O)c2cc1OC" , I found its % Inhibition of KDR kinase autophosphorylation in KDR15 cells recorded as 29

Item: "COc1cc2ncnc(NC3=CC(=O)C(Cl)=CC3=O)c2cc1OC" | % Inhibition of KDR kinase autophosphorylation in KDR15 cells: 12

Sure, the documented % Inhibition of KDR kinase autophosphorylation in KDR15 cells for "COCCOc1cc2ncnc(NC3=CC(=O)C(N(C)C4CCCCC4)=CC3=O)c2cc1OC" is 52

====

- system: human KDR (VEGF-receptor-2) (Homo sapiens, UniProt P35968)
- Construct: beginning at Met-806; (5′-ATG GAT CCA GAT GM CTC CCA TTG) and ending at Val-1356; made in house
- protocol_description: KDR kinase enzyme assay (DELFIA, KDR-IC-Flag, poly(Glu4-Tyr) peptide)
- Assay type: biochemical
- measurement_parameters: Concentration 100 nM; ATP conc. 10 μM; read-out: % Inhibition
endpoint_name: inhibition at 0.1 µM (%)
All answers are understood in %, so give the number only.

COCCOc1cc2ncnc(NC3=CC(=O)C(Oc4ccc(C(=O)OCc5ccccc5)cc4)=CC3=O)c2cc1OC: 86
COCCOc1cc2ncnc(NC3=CC(=O)C(Oc4ccc(C(=O)Cc5ccccc5)cc4)=CC3=O)c2cc1OC: 88
COCCOc1cc2ncnc(NC3=CC(=O)C(Oc4ccc(C(=O)/C=C/c5ccccc5)cc4)=CC3=O)c2cc1OC: 90

Could you now consider this next compound?
Record summary for "COc1cc2ncnc(NC3=CC(=O)C(N(C)C)=CC3=O)c2cc1OC" : reported inhibition at 0.1 µM = 28

====

- system: human KDR (VEGF-receptor-2) (Homo sapiens)
- Construct: beginning at Met-806; (5′-ATG GAT CCA GAT GM CTC CCA TTG) and ending at Val-1356; made in house
- protocol_description: KDR kinase enzyme assay (DELFIA, KDR-IC-Flag, poly(Glu4-Tyr) peptide)
- Assay type: biochemical
- measurement_parameters: Concentration 100 nM; ATP conc. 10 μM; read-out: % Inhibition
endpoint_name: inhibition at 0.1 µM (%)
Reply numerically in %, unit not repeated.

COCCOc1cc2ncnc(NC3=CC(=O)C(Sc4nccs4)=C(OC)C3=O)c2cc1OC: 92
CCOC(=O)Cc1ccc(OC2=CC(=O)C(Nc3ncnc4cc(OCCOC)c(OC)cc34)=CC2=O)cc1: 89
COCCOc1cc2ncnc(NC3=C(Sc4ccccc4)C(=O)C=C(OC)C3=O)c2cc1OC: 13
COCCOc1cc2ncnc(NC3=CC(=O)C(Oc4cccnc4)=CC3=O)c2cc1OC: 76
COCCOc1cc2ncnc(NC3=CC(=O)C(Oc4cccc(C(F)(F)F)c4)=CC3=O)c2cc1OC: 45

Lab book: inhibition at 0.1 µM of "COc1cc2ncnc(NC3=CC(=O)C(Nc4ccccc4)=CC3=O)c2cc1OC" noted as 58

Noted for "COCCOc1cc2ncnc(NC3=CC(=O)C(Oc4ccc(Br)cc4)=CC3=O)c2cc1OC" : its inhibition at 0.1 µM reads 93

Field inhibition at 0.1 µM (entry COc1cc2ncnc(NC3=CC(=O)C4(C)OC4C3=O)c2cc1OC (stereo not shown) ) reads 18

For this compound ( "COCCOc1cc2ncnc(NC3=CC(=O)C(Oc4cccc(C(C)=O)c4)=CC3=O)c2cc1OC" ), measured inhibition at 0.1 µM is 55

For record "COc1cc2ncnc(NC3=CC(=O)C(Cl)=CC3=O)c2cc1OC" the listed inhibition at 0.1 µM is 83

The compound "COCCOc1cc2ncnc(NC3=CC(=O)C(N(C)c4cccc(F)c4)=CC3=O)c2cc1OC" showed inhibition at 0.1 µM equal to 27

Sample "COCCOc1cc2ncnc(NC3=CC(=O)C(Oc4ccc5cc(Br)ccc5c4)=CC3=O)c2cc1OC" ; inhibition at 0.1 µM observed: 91

So for "COCCOc1cc2ncnc(NC3=CC(=O)C(Oc4ccccc4OCc4ccccc4)=CC3=O)c2cc1OC" , the logged inhibition at 0.1 µM turned out to be 91

Briefly, inhibition at 0.1 µM measured for "COCCOc1cc2ncnc(NC3=CC(=O)C(Oc4cccc(C#N)c4)=CC3=O)c2cc1OC" : 63

Record summary for "COCCOc1cc2ncnc(NC3=CC(=O)C(Oc4ccc5c(c4)[nH]c4ccccc45)=CC3=O)c2cc1OC" : reported inhibition at 0.1 µM = 92

For this compound ( "COCCOc1cc2ncnc(NC3=CC(=O)C(Oc4ccc(C(C)(C)c5ccccc5)cc4)=CC3=O)c2cc1OC" ), measured inhibition at 0.1 µM is 69
